tested on: HEK-293T; experiment: Multiplex assay against HEK293T; format: toxicity, cell-based; conditions: human, 12 h, 1 µM, compound concentration 1 uM, replicate 1
MEASURED QUANTITY: Population Membrane Permeable-Phenotype (%)
Number only, in %; omit the unit.

Solved entries (count: 3):
> print(dat)
                                   compound  assay.value
1  c1ccc2oc(-c3csc(C4CCN(Cc5nc6ncccc6[nH]5)CC4)n3)cc2c1            5
2  CCOc1cc2ncc(C#N)c(Nc3ccc(OCc4cccc(F)c4)c(Cl)c3)c2cc1NC(=O)/C=C/CN(C)C            4
3  CCn1c(-c2nonc2N)nc2cnc(Oc3cccc(NC(=O)c4ccc(OCCN5CCOCC5)cc4)c3)cc21 [GSK-269962A]            3

Task: Name the reported Population Membrane Permeable-Phenotype (%) value associated with the compound CC(C)Oc1ccc(C(=O)N[C@H](CNC(=O)CN(C)C)Cc2ccc(-c3cn4cccc([C@H](C)O)c4n3)cc2)cc1Cl [GSK-923295A]
Output: 6

###

system: Fibroblast; experiment: Incucyte cell viability with human fibroblast; type: toxicity, cell-based; conditions: 6 h, 10 µM, compound concentration 10 uM, replicate number 1, timepoint 6 hours; further: filed as whole numbers so only -1 and 0 and 1 occur
MEASURED QUANTITY: Growth Rate
Lab note: jot down the number only; don't add units.

A selection of reference data follows.
> print(dat)
                                   molecule  measured.quantity  assay.value
1  O=C(NC[C@H](O)CN1CCc2ccccc2C1)c1ccnc(NC2CCC2)c1        Growth Rate            0
2  N#Cc1ccc(Nc2ccc3[nH]c(=O)[nH]c3c2)c(Cl)c1 [TP-021n]        Growth Rate            0
3  CNc1nc(-c2ccc3c(N)n[nH]c3c2)cc(N2C[C@@H](C(=O)NC3CCCCC3)CC[C@H]2C)n1        Growth Rate            1
4  CCCCN(CCCC)C(=O)CN1C[C@@H](c2cc(OC)c3c(c2)OCO3)[C@H](C(=O)O)[C@H]1CC(C)(C)CCC        Growth Rate            0
5  N#Cc1cnc(Nc2cc(NC[C@H]3CNCCO3)c(C(F)(F)F)cn2)cn1        Growth Rate            1
6  Cc1cc(NC(=O)Nc2ccc(N(C)C)cc2)c2cc(F)cc(F)c2n1        Growth Rate            0
7  Cc1cc(C(=O)N2Cc3cnn(C)c3Nc3ccccc32)ccc1CNC(=O)N1CCC[C@H]1C(=S)N1CCCN(C)CC1        Growth Rate            0

Attention now shifts to the item below.
Task: Quick one: Growth Rate of CCOc1cc2ncc(C#N)c(Nc3ccc(OCc4cccc(F)c4)c(Cl)c3)c2cc1NC(=O)/C=C/CN(C)C ?
Output: 0

###

tested on: U2OS; assay: Multiplex assay against U2OS; assay type: toxicity, cell-based; settings: human, 12 h, 10 µM, compound concentration 10 uM, replicate 2
Measured Total Cell Count by item
Reply with just the number.

Solved cases below.
MOLECULE	Total Cell Count
N#Cc1cnc(Nc2cc(NC[C@H]3CNCCO3)c(C(F)(F)F)cn2)cn1 [SRA-737]	143
CCC(=O)O[C@]1(C(=O)SCF)[C@H](C)C[C@H]2[C@@H]3C[C@H](F)C4=CC(=O)C=C[C@]4(C)[C@@]3(F)[C@@H](O)C[C@@]21C [FLUTICASONE PROPIONATE]	48
CCOc1cc2ncc(C#N)c(Nc3ccc(OCc4cccc(F)c4)c(Cl)c3)c2cc1NC(=O)/C=C/CN(C)C [HKI-357]	119
Nc1ccc(C(=O)Nc2cccc(-c3nc(N4CCOCC4)c4oc5ncccc5c4n3)c2)cn1	69
CCCn1c(=O)c2[nH]c(C34CC5CC(CC3C5)C4)nc2n(CCC)c1=O [ROLOFYLLINE]	99
Cc1cn(-c2cc(NC(=O)c3ccc4c(c3)CN(c3cncnc3)C[C@@H]4C)cc(C(F)(F)F)c2)cn1	118
CC(C)N1CCC(C)(C)c2cc(C#Cc3ccc(C(=O)O)cc3)ccc21	327
c1ccc2oc(-c3csc(C4CCN(Cc5nc6ncccc6[nH]5)CC4)n3)cc2c1	114
Cl.Cl.Nc1ncnc2c1c(-c1cccc(OCc3ccccc3)c1)cn2[C@H]1C[C@@H](CN2CCC2)C1	90
CC(=O)c1cc(-c2cc(C(=O)NC3CC3)ccc2C)c2ncccn12	52

# context switch: different molecule, same Total Cell Count
Task: Checklist item: Total Cell Count tested on U2OS, entry CN(C)CCOc1ccc(-c2nc(-c3ccncc3)c(-c3ccc4c(c3)CC/C4=N\O)[nH]2)cc1 [SB590885] , value?
Output: 78
